# measured target: Human Factor XIIa (Homo sapiens, UniProt P00748)
# Construct: purchased Enzyme Research Laboratories
# Sequence (P00748 373-615 limits assumed): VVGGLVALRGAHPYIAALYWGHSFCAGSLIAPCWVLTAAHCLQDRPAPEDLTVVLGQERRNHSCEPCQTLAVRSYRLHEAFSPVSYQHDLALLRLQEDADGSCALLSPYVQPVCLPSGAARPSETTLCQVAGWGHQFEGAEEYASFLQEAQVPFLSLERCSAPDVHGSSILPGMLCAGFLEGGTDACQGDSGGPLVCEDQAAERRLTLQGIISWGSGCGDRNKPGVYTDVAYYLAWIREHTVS
# test summary: Factor XIIa inhibitory activity in vitro (fluorogenic substrate H-DPro-Phe-Arg-AFC)
# Type: biochemical
# condition description: 25° C., class symbols, read-out: Human FXIIa IC50
measure: IC50

Parameters: items (list). Returns: IC50 for each item.
1. N[C@H](CCCCN1CCC(F)(F)C1)C(=O)N1CC[C@H]1C(=O)NCc1cnc2[nH]cc(Cl)c2c1 [Example 10.04]
2. CCC(C)[C@H](C(=O)N[C@@H](Cc1ccc(F)c(F)c1)C(=O)NCc1ccc2c(N)nccc2c1)N(C)C (stereo partly shown) [Example 5.101]
3. Nc1nccc2cc(CNC(=O)[C@H](Cc3ccc(F)c(F)c3)NC(=O)CCS(=O)(=O)c3ccccc3)ccc12 [Example 0.41]
4. CC(C)N[C@H](CCCN1CCCCC1)C(=O)N[C@@H](Cc1ccc(F)c(F)c1)C(=O)NCc1ccc2c(N)nccc2c1 [Example 12.04]
5. C[C@@H]1CCC[C@H](C)N1CC(=O)N1CCC[C@H]1C(=O)NCc1ccc2c(N)nccc2c1 [Example 32.02]
6. C[C@H](NC(=O)[C@@H](CCc1ccccc1)NC1CCCCC1)C(=O)NCc1ccc2c(N)nccc2c1 [Example 6.19]

1: 0.28 to 1 µM; 2: 3 to 10 µM; 3: 3 to 10 µM; 4: 0.28 to 1 µM; 5: 10 to 40 µM; 6: 0.03 to 0.1 µM

Query (compound): COc1ncccc1C(=O)N[C@@H](Cc1ccc(F)c(F)c1)C(=O)NCc1ccc2c(N)nccc2c1 [Example 0.42] ; field requested: IC50
10 to 40 µM

The reported numbers originate from patent US20220298138A1.
